Test system: MDA-MB-231 breast
protocol.details: NCI-60 one-dose screen, 48 h (100 = growth as untreated, 0 = no growth, -100 = all killed)
condition.set: 10 µM unless noted
The panel holds about 83,000 compounds, 20% with a hit somewhere; the sample as a whole holds those more often.
measure.name: growth (%)
Give a bare numeral; the unit % is implied.

Can you share its growth? I mean this compound: `Cc1cn(-c2cc(NC(=O)c3cncc(C#Cc4cnc5ccc(O[C@@H]6CCOC6)nn45)c3)cc(C(F)(F)F)c2)cn1`
-35.5

Can you handle `O=c1c2ccccc2nc(COc2ccccc2)n1/N=C/C=C/c1ccccc1` next?
93.4

Try the compound `CC1(C)CC[C@]2(C(=O)N3CCCNCC3)CC[C@]3(C)C(=CC[C@@H]4[C@@]5(C)CCC(=O)C(C)(C)[C@@H]5CC[C@]43C)[C@H]2C1`
106

# repeat for `CCOC(=O)c1c(NC(=O)c2ccc(C(C)(C)C)cc2)sc2cc(OCCN3CCCCC3)ccc12`
70.1

Follow-up entry: `O=C1Nc2ccc(Cl)cc2/C1=C/c1ccc(OCc2ccc(Br)cc2F)cc1`
94.7

What do you have for `COc1ccc2oc3c4[nH]c5ccccc5c4c4c(c3c2c1)C(=O)N(O)C4=O` ?
95.7

Same thing, different compound: `CSc1ccc(/C(=N/N=C(N)N)c2ccccc2)cc1`
29.5

Try this compound too: `COc1ccc(-c2nc3cc(Cl)c(Cl)cc3n2CC(=O)N=Nc2c(O)[nH]c3ccc(Br)cc23)cc1`
0.262

Try `Cn1cc(-c2nn3cc(-c4cccnc4)nc3s2)c2cc(F)ccc21` next.
67

---

Test system: RPMI-8226 leukemia
protocol.details: NCI-60 one-dose screen, 48 h (100 = growth as untreated, 0 = no growth, -100 = all killed)
condition.set: 10 µM unless noted
This is part of a sample that, as a whole, favours compounds with a hit. Of some 83,000 tested, about 20% had one in any assay.
For each of the compounds below, state its growth.
Please respond with the number in % and leave the unit unwritten.

# lookup: growth of `Cn1cc(-c2nn3cc(-c4cccnc4)nc3s2)c2cc(F)ccc21`
93.9

Query `CN(C)CCn1c2ccc(N)cc2c2nc3ccccc3nc21` next
24.6

Another compound to look at: `C(=C(\C1=NCCN1)n1cnc2ccccc21)/c1cccc2ccccc12`
87.2

Thanks! And `COc1cc2oc(-c3cccc(NC(=O)c4cc(NC(=O)[C@H](C)NC(=O)OC(C)(C)C)ccc4C)c3)cc(=O)c2c(OC)c1OC` ?
45

Same question, `Oc1ccccc1/C=N/Nc1nc(N/N=C/c2ccccc2O)nc(N2CCOCC2)n1` this time
53.6

---

Test system: DU-145 prostate
protocol.details: NCI-60 one-dose screen, 48 h
condition.set: 10 µM unless noted
About 83,000 compounds went through this panel and 20% of them were active in at least one assay; those are over-represented in the sample as a whole. Calls of active or inactive are those of the source. How the source made its calls: active means growth percent below 10; inactive means the rest.
Pick one: TRUE (active), FALSE (inactive)

Could you check what this test reported for `IP(CCCCCCCCCCSc1n(Cc2ccc3ccccc3c2)c(-c2ccccc2)c(-c2ccccc2)[n+]1Cc1ccc2ccccc2c1)(c1ccccc1)(c1ccccc1)c1ccccc1` ?
TRUE

Can you handle `C/C=C/[C@@H]1C=C[C@@H]2C[C@H](C)CC[C@H]2[C@]1(C)/C(O)=C1/C(=O)[C@H](CO)N(C)C1=O` next?
FALSE

Also need `Clc1ccc(-c2nc3ccc(/C(=N\N=C\c4ccccc4)c4ccccc4)cc3[nH]2)cc1` , thanks.
FALSE

Request: `COc1ccc(Cn2cc3c(c2-c2ccccc2)CCCc2cnoc2-3)cc1`
FALSE

One more compound: O=S(=O)(NC1CC2CCC1C2)c1ccc2c(c1)C(=NO)c1cc(S(=O)(=O)NC3CC4CCC3C4)ccc1-2 (stereo unspecified)
TRUE

Please answer likewise for `CC(=O)NC(C)(C)C(=O)N1CCC[C@H]1C(=O)NC(C)(C)C(=O)N[C@@H](C)C(=O)NC(C)(C)C(=O)N[C@@H](C)C(=O)N[C@@H](CCC(N)=O)C(=O)NC(C)(C)C(=O)N[C@H](C(=O)NC(C)(C)C(=O)NCC(=O)N[C@@H](CC(C)C)C(=O)NC(C)(C)C(=O)N1CCC[C@H]1C(=O)N[C@H](C(=O)NC(C)(C)C(=O)NC(C)(C)C(=O)N[C@@H](CCC(N)=O)C(=O)N[C@@H](CCC(N)=O)C(=O)N[C@H](CO)Cc1ccccc1)C(C)C)C(C)C`
FALSE

Continue with COc1ccc(C2CC(c3ccc(Nc4nc(NCCO)nc(Nc5ccc(Cl)cc5)n4)cc3)=Nc3c(N)nc(N)nc3N2)cc1 (stereo unspecified)
FALSE

// next record `O=C(/C=C/Nc1ccc(S(=O)(=O)O)cc1)c1ccc(F)cc1`
FALSE

Cool, now CCOC(=O)C1=C(C)Nc2nc3ccccc3n2C1c1cccc(Br)c1 (stereo unspecified)
FALSE

Again, but for `O=C(NNc1nc2cc(F)c(F)cc2n2cccc12)c1ccncn1`
FALSE

Item: CN(C)C(=O)C1=NC(CO)C(=O)N(c2ccc(Cl)cc2)N1 (stereo unspecified)
FALSE

Can you check `CS(=O)(=O)c1nccc(-c2c(-c3ccc(F)c(OCCc4ccc(F)cc4)c3)nc3sccn23)n1` next?
TRUE

// next record `COc1cc(NC2=C(Cl)C(=O)c3nc(C)ccc3C2=O)cc(OC)c1`
TRUE

Same for `O=C(Nc1cccc(Cl)c1)Nc1nc2ccc(-c3cccc4ccccc34)cc2s1`
FALSE

# repeat for `CC(C)Sc1nc(NC2CC2)c(C#N)c(-c2ccccc2)n1`
FALSE

// same read-out, input: `O=C1C[C@@H](c2ccccc2)Oc2c(Cc3ccccc3O)c(O)c(Cc3cc(Cc4cc(Cc5ccccc5O)ccc4O)ccc3O)c(O)c21`
FALSE

// data source = PubChem BioAssay (NCI)
